test system: Klebsiella aerogenes; experiment: Antibacterial activity against Enterobacter aerogenes MTCC 111 after 24 hrs by twofold serial dilution method; type: functional; conditions: MTCC 111, 24 h
measurement-name: log10(MIC) (log10 of the value in µg/mL)

- CCCCN1C(=O)C2(C3=C(CN2C)C(=O)c2ccccc2C3=O)c2ccccc21 (stereo not drawn): 2.70
- CN[C@@H]1[C@H](O[C@H]2[C@H](O[C@H]3[C@H](O)[C@@H](O)[C@H](N=C(N)N)[C@@H](O)[C@@H]3N=C(N)N)O[C@@H](C)[C@]2(O)C=O)O[C@@H](CO)[C@H](O)[C@H]1O: 1.40
- CCCCCCN1C(=O)C2(C3=C(CN2C)C(=O)c2ccccc2C3=O)c2ccccc21 (stereo not drawn): 2.40
- CN1C(=O)C2(C3=C(CN2C)C(=O)c2ccccc2C3=O)c2ccccc21 (stereo not drawn): 2.10
- Cc1ccc2c(c1)C1(C(=O)N2C)C2=C(CN1C)C(=O)c1ccccc1C2=O (stereo not drawn): 1.80
- CN1CC2=C(C(=O)c3ccccc3C2=O)C12C(=O)Nc1ccc(Br)cc12 (stereo not drawn): 1.80
- C#CCN1C(=O)C2(C3=C(CN2C)C(=O)c2ccccc2C3=O)c2ccccc21 (stereo not drawn): 2.40
- Cc1ccc2c(c1)C1(C(=O)N2)C2=C(CN1C)C(=O)c1ccccc1C2=O (stereo not drawn): 2.10

----------
Listing of entries alongside the reported MIC.
test system: Staphylococcus aureus; test: Antibacterial activity against Staphylococcus aureus MTCC 96 after 24 hrs by twofold serial dilution method; assay type: functional; conditions: MTCC 96, 24 h
measurement-name: MIC (µg/mL)

* Cc1ccc2c(c1)C1(C(=O)N2C)C2=C(CN1C)C(=O)c1ccccc1C2=O (centres undefined) | 15.6
* CCCCCCN1C(=O)C2(C3=C(CN2C)C(=O)c2ccccc2C3=O)c2ccccc21 (centres undefined) | 250
* CN1CC2=C(C(=O)c3ccccc3C2=O)C12C(=O)Nc1ccc(Br)cc12 (centres undefined) | 15.6
* CCCCN1C(=O)C2(C3=C(CN2C)C(=O)c2ccccc2C3=O)c2ccccc21 (centres undefined) | 62.5

----------
Listing of entries alongside the reported inhibition zone (IZ).
test: Antifungal activity against Malassezia pachydermatis at 1000 ug/disc after 48 hrs by disc diffusion assay; assay type: functional
measurement-name: inhibition zone (IZ) (mm)

- Cc1ccc2c(c1)C1(C(=O)N2C)C2=C(CN1C)C(=O)c1ccccc1C2=O (stereo not given): 10
- CN1CC2=C(C(=O)c3ccccc3C2=O)C12C(=O)Nc1ccccc12 (stereo not given): 11
- CC(=O)N1C(=O)C2(C3=C(CN2C)C(=O)c2ccccc2C3=O)c2ccccc21 (stereo not given): 19
- O=C1C2=C(C(=O)c3ccccc31)C1(C(=O)N(Cc3ccccc3)c3ccccc31)N1CCCC21 (stereo not given): 9
- CN1CC2=C(C(=O)c3ccccc3C2=O)C12C(=O)Nc1ccc(I)cc12 (stereo not given): 14
- CN1CC2=C(C(=O)c3ccccc3C2=O)C12C(=O)Nc1ccc(Br)cc12 (stereo not given): 10
- Cc1ccc2c(c1)C1(C(=O)N2)C2=C(CN1C)C(=O)c1ccccc1C2=O (stereo not given): 12
- CN1CC2=C(C(=O)c3ccccc3C2=O)C12C(=O)Nc1ccc(Cl)cc12 (stereo not given): 10
- C#CCN1C(=O)C2(C3=C(CN2C)C(=O)c2ccccc2C3=O)c2ccccc21 (stereo not given): 10
- C=CCN1C(=O)C2(C3=C(CN2C)C(=O)c2ccccc2C3=O)c2ccccc21 (stereo not given): 9

----------
system: Staphylococcus aureus; assay: Antibacterial activity against Staphylococcus aureus MTCC 96 after 24 hrs by twofold serial dilution method; format: functional; conditions: MTCC 96, 24 h
Listing of entries alongside the reported MIC.
measurement-name: MIC (µg/mL)

- C#CCN1C(=O)C2(C3=C(CN2C)C(=O)c2ccccc2C3=O)c2ccccc21 (centres undefined): 125
- CC(=O)N1C(=O)C2(C3=C(CN2C)C(=O)c2ccccc2C3=O)c2ccccc21 (centres undefined): 31.2
- CN[C@@H]1[C@H](O[C@H]2[C@H](O[C@H]3[C@H](O)[C@@H](O)[C@H](N=C(N)N)[C@@H](O)[C@@H]3N=C(N)N)O[C@@H](C)[C@]2(O)C=O)O[C@@H](CO)[C@H](O)[C@H]1O: 6.25
- CN1C(=O)C2(C3=C(CN2C)C(=O)c2ccccc2C3=O)c2ccccc21 (centres undefined): 62.5
- CCN1C(=O)C2(C3=C(CN2C)C(=O)c2ccccc2C3=O)c2ccccc21 (centres undefined): 15.6
- Cc1ccc2c(c1)C1(C(=O)N2)C2=C(CN1C)C(=O)c1ccccc1C2=O (centres undefined): 31.2
- CN1CC2=C(C(=O)c3ccccc3C2=O)C12C(=O)Nc1ccccc12 (centres undefined): 62.5
- CN1CC2=C(C(=O)c3ccccc3C2=O)C12C(=O)Nc1ccc(I)cc12 (centres undefined): 62.5

----------
test system: Klebsiella pneumoniae; assay: Antibacterial activity against Klebsiella pneumoniae MTCC 109 after 24 hrs by twofold serial dilution method; format: functional; settings: MTCC 109, 24 h
measurement-name: MIC

• Cc1ccc2c(c1)C1(C(=O)N2C)C2=C(CN1C)C(=O)c1ccccc1C2=O (stereo not drawn) = 250 µg/mL
• CCCCCCN1C(=O)C2(C3=C(CN2C)C(=O)c2ccccc2C3=O)c2ccccc21 (stereo not drawn) = 500 µg/mL
• CN1CC2=C(C(=O)c3ccccc3C2=O)C12C(=O)Nc1ccccc12 (stereo not drawn) = 125 µg/mL
• Cc1ccc2c(c1)C1(C(=O)N2)C2=C(CN1C)C(=O)c1ccccc1C2=O (stereo not drawn) = 62.5 µg/mL
• CC(=O)N1C(=O)C2(C3=C(CN2C)C(=O)c2ccccc2C3=O)c2ccccc21 (stereo not drawn) = 15.6 µg/mL
• CN[C@@H]1[C@H](O[C@H]2[C@H](O[C@H]3[C@H](O)[C@@H](O)[C@H](N=C(N)N)[C@@H](O)[C@@H]3N=C(N)N)O[C@@H](C)[C@]2(O)C=O)O[C@@H](CO)[C@H](O)[C@H]1O = 6.25 µg/mL
• CCCCN1C(=O)C2(C3=C(CN2C)C(=O)c2ccccc2C3=O)c2ccccc21 (stereo not drawn) = 250 µg/mL
• CCN1C(=O)C2(C3=C(CN2C)C(=O)c2ccccc2C3=O)c2ccccc21 (stereo not drawn) = 250 µg/mL

----------
test system: Proteus vulgaris; assay: Antibacterial activity against Proteus vulgaris MTCC 1771 at 1000 ug/disc after 24 hrs by disc diffusion assay; format: functional; details: MTCC 1771, 24 h, read-out: IZ
Listing of entries alongside the reported zone of inhibition at 1000 µg/disc.
measurement-name: zone of inhibition at 1000 µg/disc (mm)

- C#CCN1C(=O)C2(C3=C(CN2C)C(=O)c2ccccc2C3=O)c2ccccc21 (stereo unspecified): 9
- CC(=O)N1C(=O)C2(C3=C(CN2C)C(=O)c2ccccc2C3=O)c2ccccc21 (stereo unspecified): 26
- CN1CC2=C(C(=O)c3ccccc3C2=O)C12C(=O)Nc1ccc(I)cc12 (stereo unspecified): 10
- CN1CC2=C(C(=O)c3ccccc3C2=O)C12C(=O)c1ccccc1C2=O: 8
- C#CCN1C(=O)C2(C3=C(C(=O)c4ccccc4C3=O)C3CCCN32)c2ccccc21 (stereo unspecified): 8
- CN1C(=O)C2(C3=C(C(=O)c4ccccc4C3=O)C3CCCN32)c2ccccc21 (stereo unspecified): 8
- CN1CC2=C(C(=O)c3ccccc3C2=O)C12C(=O)Nc1ccc(Br)cc12 (stereo unspecified): 12
- CN1CC2=C(C(=O)c3ccccc3C2=O)C12C(=O)Nc1ccccc12 (stereo unspecified): 11
- CN1C(=O)C2(C3=C(CN2C)C(=O)c2ccccc2C3=O)c2ccccc21 (stereo unspecified): 10
- CCCCN1C(=O)C2(C3=C(CN2C)C(=O)c2ccccc2C3=O)c2ccccc21 (stereo unspecified): 10
- CCN1C(=O)C2(C3=C(CN2C)C(=O)c2ccccc2C3=O)c2ccccc21 (stereo unspecified): 15
- Cc1ccc2c(c1)C1(C(=O)N2)C2=C(CN1C)C(=O)c1ccccc1C2=O (stereo unspecified): 9
- C=CCN1C(=O)C2(C3=C(CN2C)C(=O)c2ccccc2C3=O)c2ccccc21 (stereo unspecified): 8
- CN1CC2=C(C(=O)c3ccccc3C2=O)C12C(=O)Nc1ccc(Cl)cc12 (stereo unspecified): 10
- Cc1ccc2c(c1)C1(C(=O)N2C)C2=C(CN1C)C(=O)c1ccccc1C2=O (stereo unspecified): 16
- O=C1C2=C(C(=O)c3ccccc31)C1(C(=O)N(Cc3ccccc3)c3ccccc31)N1CCCC21 (stereo unspecified): 10
- CN1CC2=C(C(=O)c3ccccc3C2=O)C12C(=O)c1cccc3cccc2c13 (stereo unspecified): 8
- Cc1ccc2c(c1)C1(C(=O)N2)C2=C(C(=O)c3ccccc3C2=O)C2CCCN21 (stereo unspecified): 9
- CCCCCCN1C(=O)C2(C3=C(CN2C)C(=O)c2ccccc2C3=O)c2ccccc21 (stereo unspecified): 10
- CN1CC2=C(C(=O)c3ccccc3C2=O)C12C(=O)N(Cc1ccccc1)c1ccccc12 (stereo unspecified): 8
- O=C1C2=C(C(=O)c3ccccc31)C1(C(=O)Nc3ccc(Cl)cc31)N1CCCC21 (stereo unspecified): 9
